Data origin: patent US12037324B2

Target: AGTR1 (Homo sapiens)
Construct: host or cells: Pathunter CHO-K1 AGTR1 β-arrestin cell line (CHO-K1)
Sequence (P30556 1-359): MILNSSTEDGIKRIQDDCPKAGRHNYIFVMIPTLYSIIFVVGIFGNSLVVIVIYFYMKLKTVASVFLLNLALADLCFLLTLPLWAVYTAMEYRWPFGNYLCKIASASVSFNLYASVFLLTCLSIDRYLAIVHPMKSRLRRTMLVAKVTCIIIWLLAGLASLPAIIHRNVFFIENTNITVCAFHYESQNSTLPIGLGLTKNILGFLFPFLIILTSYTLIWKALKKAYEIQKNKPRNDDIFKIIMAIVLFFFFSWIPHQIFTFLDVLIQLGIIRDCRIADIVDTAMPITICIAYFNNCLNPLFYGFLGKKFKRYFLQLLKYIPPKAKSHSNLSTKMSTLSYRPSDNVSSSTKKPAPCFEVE
Test: DiscoveRx β-arrestin2 recruitment assay (enzyme complementation, Pathunter CHO-K1 AGTR1 β-arrestin cell line)
Type: cell-based
Conditions: DiscoveRx β-arrestin2 recruitment
Description: In one aspect of the invention, signaling bias of compounds was assessed by comparing the relative activity of compounds to activate both the β-arrestin and Gq signaling pathways. In order to confirm signaling bias, compounds were studied in two different assay formats. DiscoveRx β-arrestin2 Recruitment and IP1 Assays β-arrestin2 recruitment to activated receptors can be assessed using an enzyme complementation method (Zhao, Jones et al. 2008). […]
Rule for this label: yes (1) means EC50 is less than 70 nM; no (0) means EC50 is at least 70 nM.

stdin: Determine whether this compound shows EC50 lower than 70 nM (ties excluded): `CCc1nc2c(C)cc(C)nc2n1Cc1ccc(-c2cc(-c3cc(C)ccn3)ccc2-c2nn[nH]n2)cc1`
stdout: yes (1)

stdin: Is EC50 of `CCCCC1=NC2(CCCC2)C(=O)N1Cc1ccc(-c2cc(N3CCCC(F)(F)C3)ccc2-c2noc(=O)[nH]2)cc1` strictly below 70 nM?
stdout: no (0)

stdin: Could you please tell me whether EC50 recorded for `CCCCC(=O)N(Cc1ccc(-c2cc(-c3ccccc3)ccc2-c2nn[nH]n2)cc1)C(C)(C)C(=O)O` is less than 70 nM?
stdout: no (0)

stdin: Confirm or reject: EC50 of `CCC1=NC2(CCCC2)C(=O)N1Cc1ccc(-c2cc(-c3cc(C)ccn3)ccc2-c2nn[nH]n2)cc1` lies strictly below 70 nM
stdout: yes (1)

stdin: Answer whether the compound `CCOc1nc2cccc(C(=O)O)c2n1Cc1ccc(-c2cc(-n3cnc4ccccc43)ccc2-c2nn[nH]n2)cc1` has EC50 strictly less than 70 nM
stdout: yes (1)

stdin: I wonder whether `CCCCC(=O)N(Cc1ccc(-c2cc(-c3ccccc3)ccc2-c2nn[nH]n2)cc1)C1(C(=O)O)CC1` has EC50 below 70 nM. Can you tell?
stdout: no (0)

stdin: # TODO verify EC50 < 70 nM strictly for this compound: `CCCCC1=NC2(CCCC2)C(=O)N1Cc1ccc(-c2cc(-c3cccc(C(F)(F)F)n3)ccc2-c2nn[nH]n2)cc1`
stdout: yes (1)

stdin: I'd appreciate it if you could check whether `CCCc1nc(CC)c(C(N)=O)n1Cc1ccc(-c2cc(-c3ccccc3)ccc2-c2nn[nH]n2)c(C)c1` has EC50 smaller than 70 nM.
stdout: yes (1)

stdin: Lab note: confirm whether the reported EC50 for this compound is below 70 nM, equality not counting. compound: `CCCc1nc(CC)c(C(=O)OCC)n1Cc1ccc(-c2cc(-c3ccccc3)ccc2-c2nn[nH]n2)cc1`
stdout: yes (1)

stdin: A record lists `CCCCOC(=O)NS(=O)(=O)c1sc(-c2ccccc2)cc1-c1ccc(Cn2c(CC)nc3c(C)cc(C)nc32)cc1` . Is its EC50 below 70 nM?
stdout: yes (1)

stdin: A record lists `CCc1nc2c(C)cc(C)nc2n1Cc1ccc(-c2cc(-c3cccc(C)c3)ccc2C(=O)O)nc1` . Is its EC50 below 70 nM?
stdout: no (0)

stdin: Does this compound meet the criterion EC50 < 70 nM? `CCCCC(=O)N(Cc1ccc(-c2cc(-c3ccccc3)ccc2-c2nn[nH]n2)cc1)C1(C(=O)O)CCCCCC1`
stdout: yes (1)

stdin: Quick check: does `CCc1nc2c(C)cc(C)nc2n1Cc1ccc(-c2cc(-c3cccc(C)c3)ccc2-c2nnn[nH]2)nn1` have EC50 under 70 nM?
stdout: yes (1)

stdin: Lab note: confirm whether the reported EC50 for this compound is below 70 nM, equality not counting. compound: `CCCc1nc(C(C)(C)O)c(C(=O)OCC)n1Cc1ccc(-c2cc(-c3ccccc3)ccc2-c2nn[nH]n2)cc1`
stdout: no (0)

stdin: In the record for `CCCC1=NC2(CCCC2)C(=O)N1Cc1ccc(-c2cc(-c3cc(C)ccn3)ccc2-c2nn[nH]n2)cc1` , is EC50 less than 70 nM?
stdout: yes (1)

stdin: Given the entry `CCc1cn(-c2ccc(-c3nnn[nH]3)c(-c3ccc(Cn4c(CC)nc5c(C)cc(C)nc54)cc3)c2)nn1` , would its reported EC50 be below 70 nM?
stdout: yes (1)

stdin: Below 70 nM on EC50? Entry `CCCCC(=O)N(Cc1ccc(-c2cc(-c3ccccc3)ccc2-c2nn[nH]n2)cn1)[C@H](C(=O)O)C(C)C`
stdout: no (0)

stdin: Is EC50 strictly under 70 nM for the entry `CCc1nc2c(C)cc(C)nc2n1Cc1ccc(-c2cc(-c3ccccc3)ccc2-c2noc(=S)[nH]2)cc1` ?
stdout: yes (1)

stdin: Answer whether the compound `CCCCc1nc(Cl)c(C(=O)O)n1Cc1ccc(-c2cc(N3CCC[C@H](C)C3)ccc2-c2nn[nH]n2)cc1` has EC50 strictly less than 70 nM
stdout: yes (1)

====

I'd be grateful if you could share measured pEC50 for these entries.
molecular target: AGTR1 (Homo sapiens); construct: host or cells: Pathunter CHO-K1 AGTR1 β-arrestin cell line (CHO-K1); assay: DiscoveRx β-arrestin2 recruitment assay (enzyme complementation, Pathunter CHO-K1 AGTR1 β-arrestin cell line); assay type: cell-based; conditions: DiscoveRx β-arrestin2 recruitment
// pEC50 here means minus log10 of the molar concentration (mol/L)

stdin: Record request: pEC50 value, item `CCOc1nc2cccc(C(=O)O)c2n1Cc1ccc(-c2cc(-c3cc(OC)ccn3)ccc2-c2nn[nH]n2)cc1`
stdout: 7.83

stdin: Endpoint output: pEC50 of `CCc1nc2c(C)cc(C)nc2n1Cc1ccc(-c2cc(-c3cccc(C)n3)ccc2-c2nn[nH]n2)cc1` . Value?
stdout: 7.90

stdin: Entry under review: `CCCCC1=NC2(CCCC2)C(=O)N1Cc1ccc(-c2cc(N3CC4(CC4)c4ccccc43)ccc2-c2nn[nH]n2)cc1` . Reported pEC50?
stdout: 7.37

stdin: Param item = `CCc1nc2c(C)cc(C)nc2n1Cc1ccc(-c2cc(Oc3cc(Cl)ccn3)ccc2-c2nn[nH]n2)cc1` ; retrieve measured pEC50.
stdout: 7.47

stdin: I would be grateful if you could share the reported pEC50 for `CCCCc1ncc(C(=O)Nc2ccncc2)n1Cc1ccc(-c2cc(-c3ccccc3)ccc2-c2nn[nH]n2)cc1` .
stdout: 7.26

stdin: I have this compound here, `CCCCC1=NC2(CCCC2)C(=O)N1Cc1ccc(-c2cc(-n3ccc4ccccc43)ccc2-c2nn[nH]n2)cc1` , and I need its recorded pEC50.
stdout: 7.80

stdin: Tell me the measured pEC50 of CCc1nc2c(C)cc(C)nc2n1Cc1ccc(-c2cc(C3CCCCN3)ccc2-c2nn[nH]n2)cc1 (single isomer, unassigned) [Example 76] , please.
stdout: 6.08

stdin: What value of measured pEC50 is listed for `CCCCC(=O)N(Cc1ccc(-c2cc(-c3ccccc3)ccc2-c2nn[nH]n2)cn1)C1(C(=O)O)CCCCC1` ?
stdout: 6.60

stdin: Fill in the blank: the reported pEC50 of `CCCCC(=O)N(Cc1ccc(-c2cc(-c3ccccn3)ccc2-c2nn[nH]n2)cc1)[C@H](C(=O)O)C(C)C` is ____.
stdout: 6.91

stdin: Endpoint output: pEC50 of `CCCCOC(=O)NS(=O)(=O)c1sc(-c2ccccc2C(F)(F)F)cc1-c1ccc(Cn2c(CC)nc3c(C)cc(C)nc32)cn1` . Value?
stdout: 7.49

stdin: GET /values?readout=pEC50&item= CCCCC(=O)N(Cc1ccc(-c2cc(-c3ccccc3)ccc2-c2noc(=O)[nH]2)nc1)[C@H](C(=O)O)C(C)C [Example 434, 2,2,2-trifluoroacetate]
stdout: 7.14

stdin: Given `CCOc1nc2cccc(C(=O)O)c2n1Cc1ccc(-c2cc(-c3cccnc3OC)ccc2-c2noc(=O)[nH]2)cc1` , state its recorded pEC50.
stdout: 8.15

stdin: Quick one: pEC50 of CCCCC(=O)N(Cc1ccc(-c2cc(N3CCCC(C)C3)ccc2-c2nn[nH]n2)cc1)[C@H](C(=O)O)C(C)C (stereo partly drawn) ?
stdout: 6.79

stdin: Consider the compound CCCC1=NC2(CCOC2)C(=O)N1Cc1ccc(-c2cc(-c3cccc(C)c3)ccc2-c2nnn[nH]2)cc1 (single isomer, unassigned) [Example 159] and give its measured pEC50.
stdout: 7.29

stdin: Name the recorded pEC50 for `CCCCC(=O)N(Cc1ccc(-c2cc(-c3ccccc3)ccc2-c2noc(=O)[nH]2)cc1)C1(C(=O)OC)CCCCC1` .
stdout: 6.04

stdin: What pEC50 value was documented for this compound, `CCCCC1=NC2(CCCC2)C(=O)N1Cc1ccc(-c2cc(-c3ccc(OC(F)(F)F)cc3)ccc2-c2nn[nH]n2)cc1` ?
stdout: 7.13

stdin: Item under review: `CCCCc1ncc(C(=O)NCC(C)(C)C)n1Cc1ccc(-c2cc(-c3ccccc3)ccc2-c2nn[nH]n2)cc1` . Reported pEC50?
stdout: 7.85

stdin: Suppose we examine the compound `CCc1nc2c(C)cc(C)nc2n1Cc1ccc(-c2cc(Oc3ncccc3F)ccc2-c2nn[nH]n2)cc1` ; what pEC50 value has been reported?
stdout: 7.51

stdin: Looking for the measured pEC50 of `CC(C)CCC(=O)N(Cc1ccc(-c2cc(-c3ccccc3)ccc2-c2nn[nH]n2)nc1)[C@H](C(=O)O)C(C)C` , can you help?
stdout: 7.23

stdin: Data request, read-out pEC50, for `CCCCc1ncc(C(=O)NCc2nccs2)n1Cc1ccc(-c2cc(-c3ccccc3)ccc2-c2nn[nH]n2)cc1`
stdout: 7.56

stdin: Returns the measured pEC50 for the input compound. Input: `CCCc1nc(CC)c(C(=O)NCC(F)(F)F)n1Cc1ccc(-c2cc(-c3ccccc3)ccc2-c2nn[nH]n2)cc1`
stdout: 7.11
